B1: CPEB3 Ribozyme (parent)
chain: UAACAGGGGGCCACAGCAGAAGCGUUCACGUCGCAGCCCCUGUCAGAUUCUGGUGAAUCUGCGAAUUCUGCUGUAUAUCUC

Variants of: B1
measurement protocol: self-cleavage, relative activity (ratio to wild type); higher = more cleavage; in vitro, sequencing
Consider the following variants and their measured self-cleavage readings.
measure: self-cleavage

- biopolymer sequence: "UAACAGGGGGCUACAGCAGAAGCGUUCACGUCGCAGCCCCUGUAAGAUUCUGGUGAAUCUGCGAAUUCUGCUGUAUAUCUC [C12U C44A]"
  measured value: 0.94
- biopolymer sequence: "UAACAGGGGGCCACAGCAGAAGCGUCCACGUCGCAGCCCCUGUCAGCUUCUGGUGAAUCUGCGAAUUCUGCUGUAUAUCUC [U26C A47C]"
  measured value: 0.08
- biopolymer sequence: "UAACAGGGGGCCACAGCAGAAGCGUUCGCGUCGCAGCCCCUGUCAGAUUCUGGUGGAUCUGCGAAUUCUGCUGUAUAUCUC [A28G A56G]"
  measured value: 0.43
- biopolymer sequence: "UAACAGGGGGCCACAGCAGGAGCGUUCACGUCGCAGCCCCUGUCAGAUUCUGGUGAAUCUGCGAAUUCUGCUGGAUAUCUC [A20G U74G]"
  measured value: 1.17
- biopolymer sequence: "UAACAGGGGGCCACAGCAGAAGCGUUCACGCCACAGCCCCUGUCAGAUUCUGGUGAAUCUGCGAAUUCUGCUGUAUAUCUC [U31C G33A]"
  measured value: 0.21
- biopolymer sequence: "AAACAGGGGGCCACAGCAGAAGCGAUCACGUCGCAGCCCCUGUCAGAUUCUGGUGAAUCUGCGAAUUCUGCUGUAUAUCUC [U1A U25A]"
  measured value: 0.34
- biopolymer sequence: "UAACAGGGGGCCACAGCAGAAGCGUUCACGUCGCAGCCCCUGUCAGAUUCUGGUGAAUCUGCGAAUUCUGCUGUAUGCCUC [A77G U78C]"
  measured value: 0.82
- biopolymer sequence: "UAACAGGGGGCCACAGCAGAAGCUUUCACGUCGCAGCCCCUGUCAGAUUCUGGCGAAUCUGCGAAUUCUGCUGUAUAUCUC [G24U U54C]"
  measured value: 0.17
- biopolymer sequence: "UAACAGCGGGCCACAGCAGAAGCGUUCACGUCGCAGCCCCUGUCAGAUUCUGGUGAAUCUGCGAAUUCUGCUGUAUAUCAC [G7C U80A]"
  measured value: 0.37
- biopolymer sequence: "UAACGGGGGGCCACAGCAGAAGCGUUCACGUCGCAGCCCCUGUCAGAUUCGGGUGAAUCUGCGAAUUCUGCUGUAUAUCUC [A5G U51G]"
  measured value: 0.68
- biopolymer sequence: "UAACAGGGGGCAACAGCAGAAGCGUUCACGUCGCAGCCCUUGUCAGAUUCUGGUGAAUCUGCGAAUUCUGCUGUAUAUCUC [C12A C40U]"
  measured value: 0.69
- biopolymer sequence: "UAACAGGGGGCCACAACAGAAGCGUUCACGUCGCAGCCCCUGUCAGAUUCUGGUGAAUCUGCGAAUUCAGCUGUAUAUCUC [G16A U69A]"
  measured value: 0.19
- biopolymer sequence: "UAACAGGGGGCCACAGCGGAAGCGUUCACGUCGCAGCCCCGGUCAGAUUCUGGUGAAUCUGCGAAUUCUGCUGUAUAUCUC [A18G U41G]"
  measured value: 0.42
- biopolymer sequence: "UAACAGGGGGCCACAGCAGAAGCGUUCACGUCGCAGCCCCUGUCAAAUUCUGGUGAAUCUGCGAAUUCUGCUGUAUGUCUC [G46A A77G]"
  measured value: 0.27
- biopolymer sequence: "UAACAGGGGGCCACAGCAGUAGCGUUCACGUCGCAGCCCCUGUCAGAUUCUGGUGAAUCUGCGAAUUCUUCUGUAUAUCUC [A20U G70U]"
  measured value: 0.15
- biopolymer sequence: "UAACAGGGGGCCACAGCAGAAGCGUUCACGUCGCAGCCCCUGUCAGAUUCUGGUUAAUCUGCGAAUUCUGCUGUAUAUCAC [G55U U80A]"
  measured value: 1.11
- biopolymer sequence: "UAACAGGGGACCACAGCAGAAGCGUUCACGUCGCAGCCCCUGUCAGAUUCUGGUGAAUCUGCGAAUUCUGCUGUAUAUCUG [G10A C81G]"
  measured value: 0.3
- biopolymer sequence: "UAACAGGGGGCCACAGCAGAAGCGUUCACGUCGCCGCCCCUGUCAGAUUCCGGUGAAUCUGCGAAUUCUGCUGUAUAUCUC [A35C U51C]"
  measured value: 0.79
- biopolymer sequence: "UAACAGGGGGCCACAGUAGAAGCGUUCACGUCGCAGCCCCUGCCAGAUUCUGGUGAAUCUGCGAAUUCUGCUGUAUAUCUC [C17U U43C]"
  measured value: 0.41
- biopolymer sequence: "UAACAGGGGGCCACAGCAGAAGCGUUCACGUCGCGGCCCCUGUCAGAUUCUGGUGAAUCUGGGAAUUCUGCUGUAUAUCUC [A35G C62G]"
  measured value: 0.51
- biopolymer sequence: "UAACAGGGGGCCACACCAGAACCGUUCACGUCGCAGCCCCUGUCAGAUUCUGGUGAAUCUGCGAAUUCUGCUGUAUAUCUC [G16C G22C]"
  measured value: 0.07
- biopolymer sequence: "UAACAGGGGGCCACAGCAGAAGCGUUCACGUCGCAGCCCCAGUCAGAUUCUGGUGAAUCAGCGAAUUCUGCUGUAUAUCUC [U41A U60A]"
  measured value: 0.25
